# test name: refractive index (Na D-line) (dimensionless)
# cond: 323.15 K; 101.33 kPa; Liquid; Standard Abbe refractometry
test readout: refractive index
Just the number, please, no unit attached.

The cases that follow already have their refractive index on record.
CCCCCCCC(=O)[O-].CCCCCC[NH+](CCCCCC)CCCCCC [trihexylammonium octanoate] ... 1.4341
CCCC(=O)[O-].CCCCCCCC[NH+](CCCCCCCC)CCCCCCCC [trioctylammonium butanoate] ... 1.4356
CCCCCC(=O)[O-].CCCCCC[NH+](CCCCCC)CCCCCC [trihexylammonium hexanoate] ... 1.4315

Entry CCCCCC(=O)[O-].CCCCCCCC[NH+](CCCCCCCC)CCCCCCCC [trioctylammonium hexanoate] : reported refractive index = ?
1.4375

Entry CCCC(=O)[O-].CCCCCC[NH+](CCCCCC)CCCCCC [trihexylammonium butanoate] : reported refractive index = ?
1.4302

Entry CCCCCCCC(=O)[O-].CCCCCCCC[NH+](CCCCCCCC)CCCCCCCC [trioctylammonium octanoate] : reported refractive index = ?
1.4389
